# System: SR
# MEASUREMENT DESCRIPTION: NCI tumour cell line growth inhibition, 48 h
Activity calls are given as the source filed them. Cut-off read from the data, not from the text of the source: active = GI50 up to about 1.1 µM and inactive = higher.
OUTCOME MEASURE: GI50

>  <MOLECULE>
Cc1cc2nc3ccccc3n2c2nc(N)ccc12

>  <GI50>
13.5 µM (inactive)

$$$$
>  <MOLECULE>
CCc1[nH]c(=O)nc(N)c1-c1ccc(N2CCCCC2)c([N+](=O)[O-])c1

>  <GI50>
> 100 µM (inactive)

$$$$
>  <MOLECULE>
C/C1=C\C=C(\C(C)C)CC/C(C(=O)O)=C\CC/C(C)=C/CC1

>  <GI50>
19.5 µM (inactive)

$$$$
>  <MOLECULE>
CC(C)OP(=O)(OC(C)C)C(C(C)C)N(C)/C(N)=N/C#N (stereo unspecified)

>  <GI50>
> 100 µM (inactive)

$$$$
>  <MOLECULE>
O=c1cc(-c2ccccc2)nc2[nH]ccn12

>  <GI50>
> 10 µM (inactive)

$$$$

Here is another molecule to look at.
Recorded GI50 for O=[N+]([O-])c1nccn1COCCI with SR, please?
> 100 µM (inactive)

----------
# Tested on: OVCAR-3
# MEASUREMENT DESCRIPTION: NCI tumour cell line growth inhibition, 48 h
Activity calls are given as the source filed them. Cut-off read from the data, not from the text of the source: active = GI50 up to about 1.1 µM and inactive = higher.
Hi there, use one of these labels in your reply, thanks! active, inactive

Worked examples follow.
>  <MOLECULE>
CC(NNC(=O)c1ccncc1)c1ccccc1 (stereo unspecified)

>  <TGT>
OVCAR-3

>  <ASSIGNED CLASS>
inactive

$$$$
>  <MOLECULE>
C[N+]1(C(CO)Cc2c[nH]c3ccccc23)Cc2ccccc2C1 (stereo unspecified)

>  <TGT>
OVCAR-3

>  <ASSIGNED CLASS>
inactive

$$$$

Test call for this molecule, please: CCCCCCCCCC(=O)NC(Cc1ccc(O)cc1)C(=O)NCCCNCCCCNCCCNC(=O)[C@@H](N)CCCN=C(N)N (stereo partly specified)
inactive

Test call for this molecule, please: O=S1(=O)N=C(SCc2c[nH]c3ccccc23)N(c2ccccc2)c2ccncc21
inactive

----------
# Test system: SNB-78
# MEASUREMENT DESCRIPTION: NCI tumour cell line growth inhibition, 48 h
Calls of active or inactive are those of the source. No stated cut-off is given here; in the data, active = GI50 up to about 1.1 µM and inactive = higher.
Hi there, use one of these labels in your reply, thanks! active, inactive

Worked examples follow.
>  <MOLECULE>
CC(C)[C@@H]1C=C(c2ccccc2)c2ccccc2C1C(C#N)(C#N)C(C)C (stereo not given in full)

>  <ASSIGNED CLASS>
inactive

$$$$
>  <MOLECULE>
Cc1cn(C2CC(N(O)Cc3ccccc3)C(CO)O2)c(=O)[nH]c1=O (stereo not given)

>  <ASSIGNED CLASS>
inactive

$$$$
>  <MOLECULE>
Cc1ccccc1-n1c2nc(=O)n(C)c(=O)c-2nc2ccccc21

>  <ASSIGNED CLASS>
inactive

$$$$
>  <MOLECULE>
OC(CBr)C(O)C(O)C(O)CBr (stereo not given)

>  <ASSIGNED CLASS>
inactive

$$$$
>  <MOLECULE>
COc1cc(OC)c(OC)cc1/C=C\c1ccnc2ccccc12

>  <ASSIGNED CLASS>
inactive

$$$$
>  <MOLECULE>
Nc1nc(O)c2ncn(C3OC(CO)C(O)C3O)c2n1 (stereo not given)

>  <ASSIGNED CLASS>
inactive

$$$$
>  <MOLECULE>
C/C(CCn1[nH]c(=O)ccc1=O)=N\O

>  <ASSIGNED CLASS>
inactive

$$$$
>  <MOLECULE>
Cc1ccc(S(=O)(=O)N/N=C\c2c3ccccc3[n+](C)c3ccccc23)cc1

>  <ASSIGNED CLASS>
inactive

$$$$
>  <MOLECULE>
COc1cc2c(cc1OC)-c1cc(OC)c(OC)cc1[C@H]1CN3CCC[C@@]3(O)C=C21

>  <ASSIGNED CLASS>
active

$$$$
>  <MOLECULE>
COc1cccc(N2C(=O)[C@H]3[C@H]4CC(C(C)(C)C)CC[C@H]4c4c([nH]c5ccccc45)[C@H]3C2=O)c1 (stereo not given in full)

>  <ASSIGNED CLASS>
inactive

$$$$

Test call for this molecule, please: COc1ccc(/C(Cl)=C(\C=O)c2ccc(Cl)c(Cl)c2)cc1
inactive

Test call for this molecule, please: O=C(Nc1ccc(/N=N/c2ccccc2)cc1)Sc1ccccc1C(=O)O
inactive

Test call for this molecule, please: O=S(OC12CC3CC(CC(C3)C1)C2)c1cc(Cl)cc(Cl)c1OCc1ccccc1 (stereo not given)
inactive

Test call for this molecule, please: N#CC1CCCCOCCOCCOCCOCCOCCCCCC1=O (stereo not given)
inactive

Test call for this molecule, please: O=C(NCCCOC(=O)CCCCCCCCC(=O)OCCCNC(=O)NC(=O)c1c[nH]c(=O)[nH]c1=O)NC(=O)c1c[nH]c(=O)[nH]c1=O
inactive
